# experimental_details: survival rescue of mitochondrial mutant cells in low glucose, primary screen, MELAS cybrids, Rieske KO mouse fibroblasts, CellTiter-Glo (AID 1508586); also: test concentration not given here
# measurement_context: Rieske KO mouse fibroblast survival, CellTiter-Glo 72 h
The threshold is 0.008. Values of z-score beneath it are tagged Y; values meeting or exceeding it are tagged N.

For "CC(=O)Nc1cccc(C#Cc2cncnc2Nc2ccc(OCc3cccc(F)c3)c(Cl)c2)c1" , is the recorded z-score below the cut-off of 0.008?
Y

Confirm or reject: z-score of "Fc1ccc(-c2ncn(C3CCNCC3)c2-c2ccnc(Oc3ccc(Cl)cc3)n2)cc1" lies strictly below 0.008
Y

For this molecule, is z-score lower than 0.008? NS(=O)(=O)c1ccc(NC2CC(c3cccc(O)c3)NN2)cc1 (stereo unspecified)
Y

Does the reported z-score of "COC(=O)Nc1nc2ccc(Oc3ccc(NC(=O)Nc4cccc(Cl)c4)cc3)cc2[nH]1" stay below 0.008?
Y

Threshold test, z-score < 0.008: NS(=O)(=O)c1cccc(NC2CC(c3ccc(F)cc3)NN2)c1 (stereo unspecified)
Y

In plain terms, does "O=C1NC(=O)C(c2ccccc2Cl)=C1Nc1cccc(O)c1" come in under 0.008 for z-score?
Y

Source of measurements: PubChem BioAssay
